- experiment_description: Induction of apoptosis in HPNE cells assessed as accumulation at sub-G0/G1 phase at 20 uM after 48 hrs by propidium iodide staining based flow cytometry (reference value: 0.7%)
- Assay type: cell-based
- cond: human
# note: exactly 80% is not below, so it is False; use True for Activity strictly under it

Please review the entries below; each comes with its answer.
>  <compound>
CCCCCCCCCCCCCCCCCCOCC(COP(=O)([O-])OCC[N+](C)(C)C)OC (stereo not given)

>  <assigned_label>
True

$$$$
>  <compound>
Cl.O[C@H]1CN[C@H](COCCCCCCCC/C=C/c2ccc(Oc3ccccc3)cc2)C1

>  <assigned_label>
False

$$$$

*Q* Could you please tell me whether Activity recorded for `CCCCCC/C=C/CCCCCCCCOC[C@H]1NC[C@H](O)[C@@H]1O` is less than 80%?
*A* True

*Q* Consider `CCCCCCCC/C=C\CCCCCCCCOCC[C@H]1NC[C@H](O)[C@@H]1O` . Does its Activity lie strictly below 80%?
*A* True

*Q* Does this compound meet the criterion Activity < 80%? `CCCCCC/C=C\CCCCCCCCOC[C@H]1NC[C@H](O)[C@@H]1O`
*A* True

*Q* A record lists `Cl.O[C@H]1CN[C@H](COCCCCCC/C=C/c2ccc(-c3ccccc3)cc2)C1` . Is its Activity below 80%?
*A* False

*Q* Determine if `Cl.O[C@H]1CN[C@H](COCCCCCCCCC/C=C/c2ccc(-c3ccccc3)cc2)C1` shows Activity strictly lower than 80%.
*A* False

*Q* Field: below-cutoff. Rule: recorded Activity strictly less than 80%. Subject: `CCCCCCCCCCCCCCCCOC[C@H]1NC[C@H](O)[C@@H]1O`
*A* True

*Q* State whether 80% exceeds Activity recorded for `Cl.O[C@H]1CN[C@H](COCCCCCCCCC/C=C/c2ccc(Oc3ccccc3)cc2)C1` .
*A* False

###

- System: PANC-1
- experiment_description: Induction of apoptosis in human PANC1 cells assessed as accumulation at sub-G0/G1 phase at 20 uM after 48 hrs by propidium iodide staining based flow cytometry (reference value: 0.2 to 2.9%)
- Format: functional
metric_name: Activity (%)
Please respond with the number in % and leave the unit unwritten.

Here are 5 molecules together with their reported answers.
>  <molecule>
CCCCCC/C=C/CCCCCCCCOC[C@H]1NC[C@H](O)[C@@H]1O

>  <measured_on>
PANC-1

>  <Activity (%)>
23.4

$$$$
>  <molecule>
O[C@H]1[C@@H](O)CN[C@@H]1COCCCCCCCC/C=C/c1ccc(Oc2ccccc2)cc1

>  <measured_on>
PANC-1

>  <Activity (%)>
33.1

$$$$
>  <molecule>
C(=C\c1ccc(-c2ccccc2)cc1)/CCCCCCCCCOC[C@@H]1CCCN1.Cl

>  <measured_on>
PANC-1

>  <Activity (%)>
2.2

$$$$
>  <molecule>
Cl.O[C@H]1CN[C@H](COCCCCCCCCC/C=C/c2ccc(-c3ccccc3)cc2)C1

>  <measured_on>
PANC-1

>  <Activity (%)>
38

$$$$
>  <molecule>
CCCCCCCC/C=C\CCCCCCCCOCC[C@H]1NC[C@H](O)[C@@H]1O

>  <measured_on>
PANC-1

>  <Activity (%)>
13.6

$$$$

*Q* Quote Activity reported for `C(=C\c1ccc(-c2ccccc2)cc1)/CCCCCCOC[C@@H]1CCCN1.Cl` please.
*A* 2.1

*Q* Name the recorded Activity of the item `CCCCCCCC/C=C/CCCCCCCCOC[C@@H]1CCCN1.Cl` in your answer.
*A* 5.3
